Listed here are compounds together with their documented melting point.
Measured endpoint: melting point (°C)

- Compound: "COC(=O)CC(=O)OC [Dimethyl malonate]"
  Measured value: -62
- Compound: "Cc1ccc(Cc2ccc(C)cc2)cc1 [4,4'-dimethyldiphenylmethane]"
  Measured value: 29
- Compound: "COC(=O)c1ccc([N+](=O)[O-])cc1Cl [methyl 2-chloro-4-nitrobenzoate]"
  Measured value: 76
- Compound: "O=C(O)c1cc([N+](=O)[O-])ccc1O [5-nitrosalicylic acid]"
  Measured value: 232
- Compound: "CC(CO)(CO)CO [1,1,1-tris(hydroxymethyl)ethane]"
  Measured value: 190
- Compound: "NS(=O)(=O)Cc1noc2ccccc12 [Zonisamide]"
  Measured value: 162
- Compound: "COc1c(B(O)O)cccc1C(=O)O [3-(Dihydroxyboryl)-2-methoxybenzoic acid]"
  Measured value: 157
- Compound: "Cc1cc[n+]([O-])cc1C(N)=O [4-methylpyridine-3-carboxamide 1-oxide]"
  Measured value: 280
- Compound: "C[C@H]1C[C@H]2[C@@H]3CCC4=CC(=O)C=C[C@]4(C)[C@@]3(F)[C@@H](O)C[C@]2(C)[C@@]1(O)C(=O)CO [Betamethasone]"
  Measured value: 232
- Compound: "CCOc1ccc(NC(=O)CC(C)O)cc1 (stereo unspecified) [bucetin]"
  Measured value: 160
- Compound: "C[Si](C)(Cl)Cl [dichlorodimethylsilane]"
  Measured value: -76
- Compound: "OB(O)c1ccc(F)c(Cl)c1 [3-chloro-4-fluorobenzeneboronic acid]"
  Measured value: 258
- Compound: "O=C1CCCC1 [cyclopentanone]"
  Measured value: -51
- Compound: "COC(=O)c1ccc(OC)cc1 [methyl 4-methoxybenzoate]"
  Measured value: 50
- Compound: "COc1cc(C)c2c(c1)CC/C(=C\\c1ccccc1)C2=O"
  Measured value: 97
- Compound: "O=C(O)[C@@H]1CCCN1 [proline]"
  Measured value: 221
- Compound: "Brc1ccccc1 [Bromobenzene]"
  Measured value: -31
- Compound: "COc1ccc(/N=N/c2sc(CC#N)nc2C)cc1"
  Measured value: 159
- Compound: "OCC(O)COc1ccc(Cl)cc1 (stereo unspecified) [3-(4-chlorophenoxy)-1,2-propanediol]"
  Measured value: 80
- Compound: "BrBr [Bromine]"
  Measured value: -7.2
- Compound: "OB(O)c1ccccc1Cl [2-chlorobenzeneboronic acid]"
  Measured value: 98

###

Listed here are compounds together with their documented melting point.
Measured endpoint: melting point (°C)

- Compound: "O=C1CN2CCOC2(c2ccccc2F)c2cc(Br)ccc2N1 (stereo not given)"
  Measured value: 185
- Compound: "CC(O)C1(O)CCC2C3CCC4(C)CC(O)CCC4(C)C3CCC21C (stereo not given)"
  Measured value: 219
- Compound: "CN(C)/C=C/[N+](=O)[O-]"
  Measured value: 103
- Compound: "CC1CCC(C(C)C)C(O)C1 (stereo not given) [2-Isopropyl-5-methylcyclohexanol]"
  Measured value: 34.5
- Compound: "O=[N+]([O-])c1cccnc1Cl"
  Measured value: 101
- Compound: "CCC(C)CCC(C)O (stereo not given)"
  Measured value: -120
- Compound: "O=[N+]([O-])c1ccc(O)c([N+](=O)[O-])c1"
  Measured value: 107
- Compound: "CCCCCCC(=O)OCC [ethyl_heptanoate]"
  Measured value: -66
- Compound: "ClC(Cl)=C(Cl)Cl"
  Measured value: -22
- Compound: "O=C(Cc1ccccc1)Cc1ccccc1"
  Measured value: 34
- Compound: "CC(=O)N1CCN(c2ccc(OCC3COC(Cn4ccnc4)(c4ccc(Cl)cc4Cl)O3)cc2)CC1 (stereo not given)"
  Measured value: 146
- Compound: "CC(C)Cc1ccc(C(C)C(=O)O)cc1 (stereo not given) [ibuprofen]"
  Measured value: 76
- Compound: "COc1ccc2c3c1O[C@H]1[C@@H](O)C=C[C@H]4[C@@H](C2)N(C)CC[C@@]341"
  Measured value: 155
- Compound: "Cc1ccc(C(C)(C)C)cc1 [4-tert-butyltoluene]"
  Measured value: -63
- Compound: "CCCCCCCCCCCC=O"
  Measured value: 12
- Compound: "Oc1c(Br)c(Br)c(Br)c(Br)c1Br"
  Measured value: 230
- Compound: "Cc1cc2nc3c(=O)[nH]c(=O)nc-3n(C[C@H](O)[C@H](O)[C@H](O)CO)c2cc1C"
  Measured value: 280
- Compound: "O=C(O)/C=C/c1ccccc1B(O)O"
  Measured value: 171
- Compound: "COc1ccc(S(=O)(=O)Cl)cc1 [4-methoxybenzenesulfonyl chloride]"
  Measured value: 40
- Compound: "ClC1=C(Cl)[C@]2(Cl)C3C(Cl)C(Cl)CC3[C@@]1(Cl)C2(Cl)Cl (stereo not given in full)"
  Measured value: 106
- Compound: "CC(=O)Oc1ccccc1C(=O)O"
  Measured value: 135
- Compound: "O=C1CCCCCO1"
  Measured value: -2
- Compound: "Nc1nc(=O)c2nc(CNc3ccc(C(=O)N[C@@H](CCC(=O)O)C(=O)O)cc3)cnc2[nH]1"
  Measured value: 250
- Compound: "CC(=O)O[C@]1(C(C)=O)CC[C@H]2[C@@H]3C[C@H](C)C4=CC(=O)CC[C@]4(C)[C@H]3CC[C@@]21C [(6alpha)-6-Methyl-3,20-dioxopregn-4-en-17-yl acetate]"
  Measured value: 208
- Compound: "CCC(C)c1cc([N+](=O)[O-])cc([N+](=O)[O-])c1O (stereo not given)"
  Measured value: 55
- Compound: "c1ccc2c(c1)Nc1ccccc1S2"
  Measured value: 187
- Compound: "CCOC(=O)c1cccc(C#N)c1 [ethyl_m-cyanobenzoate]"
  Measured value: 56
- Compound: "Nc1cccc(N)c1"
  Measured value: 65
- Compound: "CC(C)C=O [isobutyraldehyde]"
  Measured value: -65
- Compound: "COc1ccccc1 [anisole]"
  Measured value: -37
- Compound: "O=C(O)c1c(Cl)cccc1Cl [2,6-dichlorobenzoic_acid]"
  Measured value: 144
- Compound: "Sc1ccccn1"
  Measured value: 129
- Compound: "CCN(CC)C(C)CN1c2ccccc2Sc2ccccc21 (stereo not given)"
  Measured value: 53
- Compound: "OC[C@H]1O[C@@H](Oc2ccccc2)[C@H](O)[C@@H](O)[C@H]1O [phenyl beta-D-galactopyranoside]"
  Measured value: 154
- Compound: "c1ccc(CNCc2ccccc2)cc1"
  Measured value: -26
- Compound: "CC(C)CB(O)O"
  Measured value: 109
- Compound: "OB(O)c1ccc(Br)cc1"
  Measured value: 284
- Compound: "CCCCCCCCCCCCCCCCI"
  Measured value: 22
- Compound: "Nc1cccc(Cl)c1"
  Measured value: -10
- Compound: "COC(=O)c1ccc(O)cc1 [methyl p-hydroxybenzoate]"
  Measured value: 131
